Origin of the recorded values: the supplement of paper PMC10724198

Test system: Saccharomyces cerevisiae
ASSAY_PROCEDURE: protein stability index of tFT-peptide fusion (C-terminal peptide) (PSI (0-1 scale)); higher = more stable (slower turnover)
CONDITION: genetic background: das1 deletion; temperature: 30 C
OBSERVED_PROPERTY: protein stability index

1. HYTSFAVPPLVY: 0.366
2. RCSLFAKQVVSL: 0.451
3. CSFPTFRSLLLL: 0.502
4. VYFASCVVLLMV: 0.194
5. SFTRYIFFLMFF: 0.417
6. KQSGLQIKRRKL: 0.617
7. TVCSWSALSRFM: 0.645
8. RLFYRLSFVYFL: 0.378
9. CTYSLSVLFVFF: 0.3
10. APPFPSLSSFAP: 0.7
11. RVYLLGLFVRSG: 0.409
12. APPSRRLTLRLA: 0.661
13. IPLGLTLVQCLY: 0.491
14. RGPSQVIVAFFV: 0.522
15. VFCCHSSRFVFA: 0.525
16. FLAFLEPRVCCA: 0.246
17. VMIFYVLGRVWD: 0.293
18. KKKQAILRTLKI: 0.663
19. SSGIGLFVWVYG: 0.282

---

Tested on: Saccharomyces cerevisiae
ASSAY_PROCEDURE: protein stability index of tFT-peptide fusion (C-terminal peptide) (PSI (0-1 scale)); higher = more stable (slower turnover)
CONDITION: genetic background: wild type; temperature: 30 C
OBSERVED_PROPERTY: protein stability index

1. VMIFYVLGRVWD: 0.314
2. CCGWSGCVSGVL: 0.657
3. LLMPLLLHSLVW: 0.335
4. LPPYPPPVPILI: 0.39
5. IIFWMWVIIRVY: 0.108
6. VYVYTIRVRWSE: 0.184
7. SSAFFFLLFSLA: 0.266
8. CYCSIGCLIIFS: 0.22
9. LLLLASLFFRLA: 0.194
10. FVVVCWFWGGGF: 0.27

---

Test system: Saccharomyces cerevisiae
ASSAY_PROCEDURE: protein stability index of tFT-peptide fusion (C-terminal peptide) (PSI (0-1 scale)); higher = more stable (slower turnover)
CONDITION: genetic background: cdc53-1; temperature: 37 C
Please use Fulfilled whenever protein stability index is not below 0.7, and Not fulfilled whenever it is.

1. MAMMQTILIIIH: Not fulfilled
2. FFRFCFLLLASS: Not fulfilled
3. RFLACSIRYLVY: Not fulfilled
4. LLLFLHILRYVF: Not fulfilled
5. PPSPPLPPPSPF: Fulfilled
6. RCIRRWPYILKL: Not fulfilled
7. IRFFLIVFCFLR: Not fulfilled
8. SYWNSSPKCGNW: Fulfilled
9. LCWRLCRFWWVG: Fulfilled

---

System: Saccharomyces cerevisiae
ASSAY_PROCEDURE: protein stability index of tFT-peptide fusion (C-terminal peptide) (PSI (0-1 scale)); higher = more stable (slower turnover)
CONDITION: genetic background: doa10 deletion; temperature: 30 C
Please use yes (1) whenever protein stability index is not below 0.2, and no (0) whenever it is.

1) VCVRLVHCLVLV: no (0)
2) GRVYLLGLYMSF: yes (1)
3) FCLFMFVPLLPL: yes (1)
4) TPLLPPSPPPSR: yes (1)
5) IIPAFPFAFLAF: yes (1)
6) IFRLVRVVRSSS: no (0)
7) KKKTKYSKDKLC: no (0)
8) RLVRILSTILLN: no (0)
9) PPSPPLPPPSPF: yes (1)
10) FLPGEAVFVYCR: yes (1)
11) VCAFCLFFVPLP: yes (1)
12) NTYKICVVSVTS: yes (1)
13) AVLSFVLVRSVV: yes (1)
14) GFLFVLCAWGFF: yes (1)
15) TNHRVRHWILRV: yes (1)
16) YSALHNPPQPVT: yes (1)
17) VFGVWVVVGCVG: no (0)
18) RIVLRPPFNSVA: no (0)
19) YLFDQYDWYKSM: no (0)
20) SLIFLLVLILSL: yes (1)
21) YQFDGLVFLRLS: yes (1)
22) RHQTDIVTATQK: yes (1)
23) SVVVLHVHVRPP: yes (1)
24) SSLLLLCCLLVG: yes (1)
25) GSLGHCWFLFGV: yes (1)
26) SFFFLILFLFRD: yes (1)
27) PALYLSLWFLFP: yes (1)
28) VVLGLFCVRMGT: yes (1)
29) GAVRRWGWVSFV: no (0)
30) FGFFDIKLPVVA: yes (1)
31) PSRRLRHFATSP: yes (1)
32) VLVRVIYLLVSG: no (0)
33) MDLVSEYKIKVN: no (0)
34) FCVCLAVTCCGG: yes (1)
35) RRSRLYKKAGLM: no (0)
36) YDLRRIGRIGVG: yes (1)
37) GIGVVWLDVFKT: yes (1)
38) FSALAPTPLLPL: yes (1)
39) QWTVRNQGVMQR: yes (1)
40) VNFVLTLYPYLV: yes (1)
41) VRDQGWILNMLL: yes (1)
42) GIKLNVVYILLG: yes (1)
43) RVPCCLSFVPVC: yes (1)
44) TCVVCSCVLQCV: yes (1)
45) LLMPLLLHSLVW: yes (1)
46) RLWLPLSLVLWV: yes (1)
47) LWFGAWWLGAVG: yes (1)
48) FVLLCVLEFVAG: no (0)
49) GFALGSFMLVLR: yes (1)
50) RPRRARLPNFLA: no (0)
51) VTWNFIVYVCCF: no (0)
52) FCCLVLDLEVSG: yes (1)
53) MAMMQTILIIIH: no (0)
54) FFFFSFFLATFS: yes (1)
55) YRWERIYIGLRL: no (0)
56) LSSIIRFLIFCL: yes (1)
57) IWVFSVTGWCGC: yes (1)
58) FFVEFFLLCFCS: yes (1)
59) VVFRCSSFFCLV: yes (1)
60) LLAREILVIVAV: no (0)
61) IPLGLTLVQCLY: yes (1)
62) ILFCVRIGLFWT: no (0)
63) RTKIKKKIMKNI: yes (1)
64) VTGYLSTLTMLC: yes (1)
65) LLCLAVVLWFVV: yes (1)
66) YCCDYFMFVLVV: no (0)
67) LRALGPRIYRIS: no (0)
68) RVCYQIAISLPI: yes (1)
69) VCLLVSVCLLWL: no (0)
70) VLFSVWFFLVLV: yes (1)
71) SRGGVFYVRIHS: yes (1)
72) YFLFRYIVITVF: no (0)
73) CPYSNAFALCVF: no (0)
74) FFVSFFFFLWLV: yes (1)
75) VRLSQVNRLICT: yes (1)
76) FCALWLCFRLMV: no (0)

---

System: Saccharomyces cerevisiae
ASSAY_PROCEDURE: protein stability index of tFT-peptide fusion (C-terminal peptide) (PSI (0-1 scale)); higher = more stable (slower turnover)
CONDITION: genetic background: cdc53-1; temperature: 37 C
Please use 1 (yes) whenever protein stability index is not below 0.5, and 0 (no) whenever it is.

1. SWCLLVWIGGVF: 0 (no)
2. LSSIIRFLIFCL: 1 (yes)
3. VIQKKKKNKITS: 1 (yes)
4. TVCSWSALSRFM: 1 (yes)
5. GRVYLLGLYMSF: 0 (no)
6. LPSLRPPPCIRA: 0 (no)
7. RMCPWVSVRVGV: 1 (yes)
8. CLLLILCFLCVR: 0 (no)
9. GCVLVFFLRLDL: 1 (yes)
10. RWPLVIRSLIVF: 0 (no)
11. SPGFVLLAVLVI: 0 (no)
12. RGGWVVVLGCVG: 1 (yes)
13. GPCRPWIVVYAG: 1 (yes)
14. LPPSPPCQSPAL: 1 (yes)
15. PRHERPPRDNGH: 1 (yes)
16. CREFLQSMLFYC: 1 (yes)
17. FRFFYLPVSVVA: 0 (no)

---

System: Saccharomyces cerevisiae;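 note: PSI is a weighted mean of sequencing reads over stability bins, variants kept only with over 10 reads, mCherry proximal and sfGFP distal, peptide attached via GGGS linker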
ASSAY_PROCEDURE: protein stability index of tFT-peptide fusion (C-terminal peptide) (PSI (0-1 scale)); higher = more stable (slower turnover)
CONDITION: genetic background: wild type; temperature: 30 C
OBSERVED_PROPERTY: protein stability index

1. LWYVQILNIVLN: 0.249
2. VNFVLTLYPYLV: 0.278
3. RWPLVIRSLIVF: 0.22
4. FILLFGFSHWVW: 0.37
5. AWVLISNRRRIM: 0.216
6. RIRRVMHLYTNN: 0.0844
7. GALWVLGVVVGG: 0.364
8. IWVFSVTGWCGC: 0.417
9. VRDQGWILNMLL: 0.422
10. FCCLVLDLEVSG: 0.372
11. RVEPYDLARRVL: 0.628
12. GLSLLLLWFKVC: 0.104
13. YQFDGLVFLRLS: 0.4
14. CVFFCVLVCFLS: 0.3
15. KKTKKTMIIKTT: 0.369
16. VCMVLCRWRGLG: 0.234
17. IKERRKVSMKVY: 0.373
18. GAVVYGICFCTN: 0.363
19. LLGGFAAFWRIL: 0.15
